# Lookup of reported MIC50 keyed by entry
- Test system: Desulfovibrio vulgaris
- TEST NAME: Antimicrobial activity against Desulfovibrio vulgaris by Wadsworth agar dilution method
- Assay type: functional
- CONDITIONS: Nitratidesulfovibrio vulgaris
Your answer should be a plain number; it is taken to be in mg/L.

Here is how some compounds turned out for MIC50.
- COMPOUND: "NC[C@@H]1O[C@H](O[C@H]2[C@@H](O)[C@H](O[C@@H]3[C@@H](O)[C@H](N)C[C@H](N)[C@H]3O[C@H]3O[C@H](CN)[C@@H](O)[C@H](O)[C@H]3N)O[C@@H]2CO)[C@H](N)[C@@H](O)[C@@H]1O [FRAMYCETIN]"
  TARGET SYSTEM: "Desulfovibrio vulgaris"
  MIC50 (mg/L): 256
- COMPOUND: "CC(=O)Oc1ccccc1C(=O)Nc1ncc([N+](=O)[O-])s1 [NITAZOXANIDE]"
  TARGET SYSTEM: "Desulfovibrio vulgaris"
  MIC50 (mg/L): 1

Just so you know, measured MIC50 for CO[C@H]1/C=C/O[C@@]2(C)Oc3c(C)c(O)c4c(O)c(c5c(nc6cc(C)ccn65)c4c3C2=O)NC(=O)/C(C)=C\C=C\[C@H](C)[C@H](O)[C@@H](C)[C@@H](O)[C@@H](C)[C@H](OC(C)=O)[C@@H]1C [RIFAXIMIN] came out at 16

* * *

List of MIC90 values.
- Test system: Fusobacterium necrophorum
- TEST NAME: Antimicrobial activity against Fusobacterium necrophorum by Wadsworth agar dilution method
- Assay type: functional

Solved cases below.
- COMPOUND: "NC[C@@H]1O[C@H](O[C@H]2[C@@H](O)[C@H](O[C@@H]3[C@@H](O)[C@H](N)C[C@H](N)[C@H]3O[C@H]3O[C@H](CN)[C@@H](O)[C@H](O)[C@H]3N)O[C@@H]2CO)[C@H](N)[C@@H](O)[C@@H]1O [FRAMYCETIN]"
  QUANTITY KIND: "MIC90"
  RESULT: "> 1020 µg/mL"
- COMPOUND: "CN[C@H](CC(C)C)C(=O)N[C@H]1C(=O)N[C@@H](CC(N)=O)C(=O)N[C@H]2C(=O)N[C@H]3C(=O)N[C@H](C(=O)N[C@H](C(=O)O)c4cc(O)cc(O)c4-c4cc3ccc4O)[C@H](O)c3ccc(c(Cl)c3)Oc3cc2cc(c3O[C@@H]2O[C@H](CO)[C@@H](O)[C@H](O)[C@H]2O[C@H]2C[C@](C)(N)[C@H](O)[C@H](C)O2)Oc2ccc(cc2Cl)[C@H]1O [VANCOMYCIN]"
  QUANTITY KIND: "MIC90"
  RESULT: "> 1020 µg/mL"
- COMPOUND: "CO[C@H]1/C=C/O[C@@]2(C)Oc3c(C)c(O)c4c(O)c(c5c(nc6cc(C)ccn65)c4c3C2=O)NC(=O)/C(C)=C\\C=C\\[C@H](C)[C@H](O)[C@@H](C)[C@@H](O)[C@@H](C)[C@H](OC(C)=O)[C@@H]1C [RIFAXIMIN]"
  QUANTITY KIND: "MIC90"
  RESULT: "> 1020 µg/mL"

For this compound ( CC(=O)Oc1ccccc1C(=O)Nc1ncc([N+](=O)[O-])s1 [NITAZOXANIDE] ), measured MIC90 is 8 µg/mL
